system_tested: T1, nSR100 (Mus musculus, UniProt Q8BKA3)
T1 construct: host or cells: mouse N2A cells
T1 sequence (Q8BKA3 1-608): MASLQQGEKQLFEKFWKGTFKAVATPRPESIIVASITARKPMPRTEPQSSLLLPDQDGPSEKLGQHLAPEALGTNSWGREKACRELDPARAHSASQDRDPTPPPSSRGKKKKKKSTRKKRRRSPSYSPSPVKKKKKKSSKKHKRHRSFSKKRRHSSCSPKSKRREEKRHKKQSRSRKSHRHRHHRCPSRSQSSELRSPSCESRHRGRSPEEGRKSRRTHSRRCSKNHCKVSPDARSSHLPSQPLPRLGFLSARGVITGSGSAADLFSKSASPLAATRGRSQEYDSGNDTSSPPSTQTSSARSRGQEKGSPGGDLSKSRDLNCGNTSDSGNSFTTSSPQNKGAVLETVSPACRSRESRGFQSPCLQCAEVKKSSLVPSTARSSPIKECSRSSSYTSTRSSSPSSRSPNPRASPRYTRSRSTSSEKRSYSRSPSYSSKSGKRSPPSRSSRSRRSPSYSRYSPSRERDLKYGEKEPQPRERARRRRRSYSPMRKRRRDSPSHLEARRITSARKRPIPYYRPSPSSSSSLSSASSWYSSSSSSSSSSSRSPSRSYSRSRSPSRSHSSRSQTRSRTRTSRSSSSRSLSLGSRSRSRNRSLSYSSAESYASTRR
assay_text: AP-MS nSR100 interaction partners from mouse N2A cells (Table 5)
Format: binding
test_conditions: bait Srrm4, 2 replicates
measurement_name: AvgSpec (average number of spectra per replicate)
# respond with the number and nothing more

Inquiry: Which AvgSpec (average number of spectra per replicate) is reported for this molecule? Csnk2a1 (protein, UniProt Q60737 1-391, looked up) Casein kinase II subunit alpha: MSGPVPSRARVYTDVNTHRPREYWDYESHVVEWGNQDDYQLVRKLGRGKYSEVFEAINITNNEKVVVKILKPVKKKKIKREIKILENLRGGPNIITLADIVKDPVSRTPALVFEHVNNTDFKQLYQTLTDYDIRFYMYEILKALDYCHSMGIMHRDVKPHNVMIDHEHRKLRLIDWGLAEFYHPGQEYNVRVASRYFKGPELLVDYQMYDYSLDMWSLGCMLASMIFRKEPFFHGHDNYDQLVRIAKVLGTEDLYDYIDKYNIELDPRFNDILGRHSRKRWERFVHSENQHLVSPEALDFLDKLLRYDHQSRLTAREAMEHPYFYTVVKDQARMSSTSMAGGSTPVSSANMMSGISSVPTPSPLGPLAGSPVIAAANSLGIPVPAAAGAQQ
Reply text: 49.5

Inquiry: Which AvgSpec (average number of spectra per replicate) is reported for this molecule? Rab5c (protein, UniProt P35278 1-216, looked up) Ras-related protein Rab-5C: MAGRGGAARPNGPAAGNKICQFKLVLLGESAVGKSSLVLRFVKGQFHEYQESTIGAAFLTQTVCLDDTTVKFEIWDTAGQERYHSLAPMYYRGAQAAIVVYDITNTDTFARAKNWVKELQRQASPNIVIALAGNKADLASKRAVEFQEAQAYADDNSLLFMETSAKTAMNVNEIFMAIAKKLPKNEPQNAAGAPGRTRGVDLQESNPASRSQCCSN
Reply text: 2.5

Inquiry: Which AvgSpec (average number of spectra per replicate) is reported for this molecule? Bcas2 (protein, UniProt Q9D287 2-225, looked up) Pre-mRNA-splicing factor SPF27: AGTGLVAGEVVVDALPYFDQGYEAPGVREAAAALVEEETRRYRPTKNYLSYLTAPDYSAFETDIMRNEFERLAARQPIELLSMKRYELPAPSSGQKNDITAWQECVNNSMAQLEHQAVRIENLELMSQHGCNAWKVYNENLVHMIEHAQKELQKLRKHIQDLNWQRKNMQLTAGSKLREMESNWVSLVSKNYEIERTIVQLENEIYQIKQQHGEANKENIRQDF
Reply text: 2.5
